target_entity: T1, beta-catenin Armadillo domain, residues 134-665 (human, UniProt P35222 134-665, biotinylated through the N-terminal yBBr tag for SPR; tag cleaved off for crystallography)
T1 construct: also called β-catenin; CTNNB1
T1 sequence: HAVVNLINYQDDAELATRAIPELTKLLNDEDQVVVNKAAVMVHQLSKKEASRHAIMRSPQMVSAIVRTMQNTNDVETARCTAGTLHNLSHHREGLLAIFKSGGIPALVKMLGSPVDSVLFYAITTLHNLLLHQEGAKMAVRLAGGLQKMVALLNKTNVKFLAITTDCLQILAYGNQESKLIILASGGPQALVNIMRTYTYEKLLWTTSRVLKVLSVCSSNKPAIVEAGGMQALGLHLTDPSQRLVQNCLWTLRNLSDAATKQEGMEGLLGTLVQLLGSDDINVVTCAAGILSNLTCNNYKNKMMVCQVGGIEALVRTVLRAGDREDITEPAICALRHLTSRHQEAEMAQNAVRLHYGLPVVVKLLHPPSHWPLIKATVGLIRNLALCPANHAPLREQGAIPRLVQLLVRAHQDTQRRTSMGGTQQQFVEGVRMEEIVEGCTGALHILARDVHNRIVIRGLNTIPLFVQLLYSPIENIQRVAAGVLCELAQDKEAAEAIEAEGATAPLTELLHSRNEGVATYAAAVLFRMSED
procedure_details: SPR, alanine-scanning table
Bridge positions count the residues as written; N and C are the ends.
measured_metric: Kd

Solved entries (count: 3):
binder	reported_measurement
Ac-DPATHRCEWAAAHCELV-NH2 (bridge 7-14; not fully specified (bridges); printed as Ac-DPATHRCEWAAAHCELV-NH2, also called L-to-A member of the alanine-scanning series of FP01567) [FP49255]	> 20 µM
Ac-DPATHRCEWAALHCEAV-NH2 (bridge 7-14; not fully specified (bridges); printed as Ac-DPATHRCEWAALHCEAV-NH2, also called L-to-A (penultimate residue) member of the alanine-scanning series of FP01567) [FP49258]	> 20 µM
Ac-DPATHRCEWAALHCELA-NH2 (bridge 7-14; not fully specified (bridges), also called V-to-A (last residue) member of the alanine-scanning series of FP01567) [FP49259]	> 20 µM

Query binder follows.
Problem: What does the data say about its Kd? Entry: Ac-DPATHRCEAAALHCELV-NH2 (bridge 7-14; not fully specified (bridges); printed as Ac-DPATHRCEAAALHCELV-NH2, also called W-to-A member of the alanine-scanning series of FP01567) [FP49254]
Result: > 20 µM

Recorded values, source patent US20240376151A1.
